The reported measurements were obtained from paper PMC10535219.

# experiment_summary: Biodisposition of JV-DE1 and JV-MD2 delivered via NIODP (periorbital skin) in non-human primates
# Format: in vivo, cynomolgus monkeys
# assay_setup: cynomolgus, cynomolgus monkey, vitreous humor, topical; JV-DE1; monkey; NIODP OD; 160.6 μg/eye; 3 h; read-out: Drug in OD Tissues, Vitreous humor
outcome_measure: concentration at 3 h (ng/mL)
Supply the numeric figure in ng/mL, leaving out any unit text.

Looking for the measured concentration at 3 h of CC(C)Oc1ccc(Cc2ccc(NC3=NCCN3)cc2)cc1 , can you help?
7.9

* * *

# experiment_summary: Biodisposition of JV-DE1 eye drops in New Zealand rabbits (LC-MS/MS of plasma and ocular tissues)
# Type: in vivo
# assay_setup: New Zealand, retina, topical or ocular, 120 ug; rabbit; eye drop 120 µg/eye; read-out: Cmax in retina
outcome_measure: Cmax (ng/g)
Supply the numeric figure in ng/g, leaving out any unit text.

Looking for the measured Cmax of CC(C)Oc1ccc(Cc2ccc(NC3=NCCN3)cc2)cc1 , can you help?
92
